# System: Human immunodeficiency virus
# PROTOCOL TEXT: Antiviral activity against HIV/NL4-3 infected in human TZM-bl cells assessed as inhibition of viral replication after 48 hrs by luciferase reporter gene assay
# Format: functional, organism-based
# APPLIED CONDITIONS: Human immunodeficiency virus 1, NL4-3, TZM-bl
EC50 values for the compounds below.
QUANTITY MEASURED: EC50 (nM)

>  <STRUCTURE AS SMILES>
COc1cc2c(c3oc4ccccc4c(=O)c13)[C@@H](OC(=O)[C@@]13CCC(C)(C(=O)O1)C3(C)C)[C@@H](OC(=O)[C@@]13CCC(C)(C(=O)O1)C3(C)C)C(C)(C)O2

>  <QUANTITY MEASURED>
EC50

>  <MEASURED VALUE>
63

$$$$
>  <STRUCTURE AS SMILES>
COc1cc(C)c2c(=O)c3c(OC)cc4c(c3oc2c1)[C@@H](OC(=O)[C@@]12CCC(C)(C(=O)O1)C2(C)C)[C@@H](OC(=O)[C@@]12CCC(C)(C(=O)O1)C2(C)C)C(C)(C)O4

>  <QUANTITY MEASURED>
EC50

>  <MEASURED VALUE>
140

$$$$
>  <STRUCTURE AS SMILES>
COc1ccc2c(=O)c3c(OC)cc4c(c3oc2c1)[C@@H](OC(=O)[C@@]12CCC(C)(C(=O)O1)C2(C)C)[C@@H](OC(=O)[C@@]12CCC(C)(C(=O)O1)C2(C)C)C(C)(C)O4

>  <QUANTITY MEASURED>
EC50

>  <MEASURED VALUE>
362

$$$$

###

# Test system: Human immunodeficiency virus
# PROTOCOL TEXT: Antiviral activity against HIV/NL4-3 infected in human TZM-bl cells assessed as inhibition of viral replication after 48 hrs by luciferase reporter gene assay
# Type: functional, organism-based
# APPLIED CONDITIONS: Human immunodeficiency virus 1, NL4-3, TZM-bl
QUANTITY MEASURED: EC50 (nM)

>  <STRUCTURE AS SMILES>
Cc1cc(=O)c2ccc3c(c2o1)[C@@H](OC(=O)[C@@]12CCC(C)(C(=O)O1)C2(C)C)[C@@H](OC(=O)[C@@]12CCC(C)(C(=O)O1)C2(C)C)C(C)(C)O3

>  <QUANTITY MEASURED>
EC50

>  <UNIT TAG>
nM

>  <MEASURED VALUE>
100

$$$$
>  <STRUCTURE AS SMILES>
COc1cc2c(c3oc4ccc(F)cc4c(=O)c13)[C@@H](OC(=O)[C@@]13CCC(C)(C(=O)O1)C3(C)C)[C@@H](OC(=O)[C@@]13CCC(C)(C(=O)O1)C3(C)C)C(C)(C)O2

>  <QUANTITY MEASURED>
EC50

>  <UNIT TAG>
nM

>  <MEASURED VALUE>
100

$$$$
>  <STRUCTURE AS SMILES>
Cc1cc(=O)c2c(C)cc3c(c2o1)[C@@H](OC(=O)[C@@]12CCC(C)(C(=O)O1)C2(C)C)[C@@H](OC(=O)[C@@]12CCC(C)(C(=O)O1)C2(C)C)C(C)(C)O3

>  <QUANTITY MEASURED>
EC50

>  <UNIT TAG>
nM

>  <MEASURED VALUE>
36

$$$$
>  <STRUCTURE AS SMILES>
CC1(C)Oc2ccc3c(=O)c4ccccc4oc3c2[C@@H](OC(=O)[C@@]23CCC(C)(C(=O)O2)C3(C)C)[C@H]1OC(=O)[C@@]12CCC(C)(C(=O)O1)C2(C)C

>  <QUANTITY MEASURED>
EC50

>  <UNIT TAG>
nM

>  <MEASURED VALUE>
308

$$$$
>  <STRUCTURE AS SMILES>
COc1cc2c(c3oc4cccc(C)c4c(=O)c13)[C@@H](OC(=O)[C@@]13CCC(C)(C(=O)O1)C3(C)C)[C@@H](OC(=O)[C@@]13CCC(C)(C(=O)O1)C3(C)C)C(C)(C)O2

>  <QUANTITY MEASURED>
EC50

>  <UNIT TAG>
nM

>  <MEASURED VALUE>
150

$$$$

###

# Tested on: Human immunodeficiency virus
# PROTOCOL TEXT: Antiviral activity against HIV/NL4-3 infected in human TZM-bl cells assessed as inhibition of viral replication after 48 hrs by luciferase reporter gene assay
# Assay type: functional, organism-based
# APPLIED CONDITIONS: Human immunodeficiency virus 1, NL4-3, TZM-bl

>  <STRUCTURE AS SMILES>
COc1ccc2oc3c4c(cc(OC)c3c(=O)c2c1)OC(C)(C)[C@H](OC(=O)[C@@]12CCC(C)(C(=O)O1)C2(C)C)[C@@H]4OC(=O)[C@@]12CCC(C)(C(=O)O1)C2(C)C

>  <ASSAY TARGET>
Human immunodeficiency virus

>  <EC50 [nM]>
121

$$$$
>  <STRUCTURE AS SMILES>
COc1cc2c(c3oc4ccc(C)cc4c(=O)c13)[C@@H](OC(=O)[C@@]13CCC(C)(C(=O)O1)C3(C)C)[C@@H](OC(=O)[C@@]13CCC(C)(C(=O)O1)C3(C)C)C(C)(C)O2

>  <ASSAY TARGET>
Human immunodeficiency virus

>  <EC50 [nM]>
65

$$$$
>  <STRUCTURE AS SMILES>
COc1cc2c(c3oc4cc(C)ccc4c(=O)c13)[C@@H](OC(=O)[C@@]13CCC(C)(C(=O)O1)C3(C)C)[C@@H](OC(=O)[C@@]13CCC(C)(C(=O)O1)C3(C)C)C(C)(C)O2

>  <ASSAY TARGET>
Human immunodeficiency virus

>  <EC50 [nM]>
95

$$$$
>  <STRUCTURE AS SMILES>
CCc1cc(=O)c2ccc3c(c2o1)[C@@H](OC(=O)[C@@]12CCC(C)(C(=O)O1)C2(C)C)[C@@H](OC(=O)[C@@]12CCC(C)(C(=O)O1)C2(C)C)C(C)(C)O3

>  <ASSAY TARGET>
Human immunodeficiency virus

>  <EC50 [nM]>
70

$$$$
>  <STRUCTURE AS SMILES>
COc1cc2c(c3oc4c(F)cccc4c(=O)c13)[C@@H](OC(=O)[C@@]13CCC(C)(C(=O)O1)C3(C)C)[C@@H](OC(=O)[C@@]13CCC(C)(C(=O)O1)C3(C)C)C(C)(C)O2

>  <ASSAY TARGET>
Human immunodeficiency virus

>  <EC50 [nM]>
230

$$$$
>  <STRUCTURE AS SMILES>
COc1cc2c(c3oc4c(C)cccc4c(=O)c13)[C@@H](OC(=O)[C@@]13CCC(C)(C(=O)O1)C3(C)C)[C@@H](OC(=O)[C@@]13CCC(C)(C(=O)O1)C3(C)C)C(C)(C)O2

>  <ASSAY TARGET>
Human immunodeficiency virus

>  <EC50 [nM]>
1520

$$$$
>  <STRUCTURE AS SMILES>
CCc1cc(=O)c2c(C)cc3c(c2o1)[C@@H](OC(=O)[C@@]12CCC(C)(C(=O)O1)C2(C)C)[C@@H](OC(=O)[C@@]12CCC(C)(C(=O)O1)C2(C)C)C(C)(C)O3

>  <ASSAY TARGET>
Human immunodeficiency virus

>  <EC50 [nM]>
100

$$$$

###

# System: KB
# PROTOCOL TEXT: Reversal of p-glycoprotein-mediated multidrug resistance in human vincristine-resistance KB cells assessed as potentiation of vincristine-induced cytotoxicity at 4 uM after 48 hrs by SRB assay relative to verapamil
# Format: cell-based
Item-by-item account of fold change (FC)

>  <STRUCTURE AS SMILES>
COc1cc2c(c3oc4ccc(F)cc4c(=O)c13)[C@@H](OC(=O)[C@@]13CCC(C)(C(=O)O1)C3(C)C)[C@@H](OC(=O)[C@@]13CCC(C)(C(=O)O1)C3(C)C)C(C)(C)O2

>  <fold change (FC)>
20

$$$$
>  <STRUCTURE AS SMILES>
Cc1cc(=O)c2c(C)cc3c(c2o1)[C@@H](OC(=O)[C@@]12CCC(C)(C(=O)O1)C2(C)C)[C@@H](OC(=O)[C@@]12CCC(C)(C(=O)O1)C2(C)C)C(C)(C)O3

>  <fold change (FC)>
20

$$$$
>  <STRUCTURE AS SMILES>
COc1cccc2c(=O)c3c(OC)cc4c(c3oc12)[C@@H](OC(=O)[C@@]12CCC(C)(C(=O)O1)C2(C)C)[C@@H](OC(=O)[C@@]12CCC(C)(C(=O)O1)C2(C)C)C(C)(C)O4

>  <fold change (FC)>
20

$$$$
>  <STRUCTURE AS SMILES>
COc1c(Br)c2c(c3oc4ccccc4c(=O)c13)[C@@H](OC(=O)[C@@]13CCC(C)(C(=O)O1)C3(C)C)[C@@H](OC(=O)[C@@]13CCC(C)(C(=O)O1)C3(C)C)C(C)(C)O2

>  <fold change (FC)>
20

$$$$
>  <STRUCTURE AS SMILES>
COc1cc2c(c3oc4c(C)cccc4c(=O)c13)[C@@H](OC(=O)[C@@]13CCC(C)(C(=O)O1)C3(C)C)[C@@H](OC(=O)[C@@]13CCC(C)(C(=O)O1)C3(C)C)C(C)(C)O2

>  <fold change (FC)>
20

$$$$
>  <STRUCTURE AS SMILES>
CC1(C)Oc2ccc3c(=O)c4ccccc4oc3c2[C@@H](OC(=O)[C@@]23CCC(C)(C(=O)O2)C3(C)C)[C@H]1OC(=O)[C@@]12CCC(C)(C(=O)O1)C2(C)C

>  <fold change (FC)>
20

$$$$
>  <STRUCTURE AS SMILES>
COc1cc2c(c3oc4cccc(C)c4c(=O)c13)[C@@H](OC(=O)[C@@]13CCC(C)(C(=O)O1)C3(C)C)[C@@H](OC(=O)[C@@]13CCC(C)(C(=O)O1)C3(C)C)C(C)(C)O2

>  <fold change (FC)>
20

$$$$
